- testTarget: recombinant PRL-1 (Homo sapiens, UniProt Q93096)
- Construct: 6xHis (N, cleaved yes); made in house; host or cells: E. coli One Shot BL21 Star
- Sequence (Q93096 whole entry): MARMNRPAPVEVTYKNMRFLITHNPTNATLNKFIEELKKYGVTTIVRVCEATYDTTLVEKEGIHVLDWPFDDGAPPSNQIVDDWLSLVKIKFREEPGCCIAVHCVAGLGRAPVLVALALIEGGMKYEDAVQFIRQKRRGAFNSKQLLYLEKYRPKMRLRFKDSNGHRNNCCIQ
- experimentalProtocol: In vitro phosphatase assay (DiFMUP hydrolysis), PRL-1
- Assay type: biochemical
- conditionInfo: […] protein, DiFMUP at KM; read-out: Calculated IC50, PRL-1 phosphatase activity
pIC50: −log10 of the molar value.
The following compounds are shown together with reported pIC50 values.
measure: pIC50

[[record]]
compound = "CCOc1nc2cccc(C(=O)O)c2n1Cc1ccc(-c2ccccc2-c2nnn[nH]2)cc1"
testtarget = "recombinant PRL-1 (Homo sapiens, UniProt Q93096)"
quantitativereadout = 4.16

[[record]]
compound = "Cc1cc(C(C#N)c2ccc(Cl)cc2)c(Cl)cc1NC(=O)c1cc(I)cc(I)c1[O-].[Na+] (stereo not drawn) [Closantel Sodium, reference compound]"
testtarget = "recombinant PRL-1 (Homo sapiens, UniProt Q93096)"
quantitativereadout = 4.66

[[record]]
compound = "CC1=NN(c2ccc(C)c(C)c2)C(=O)/C1=N\\Nc1cccc(-c2cccc(C(=O)O)c2)c1O [Eltromobag Olamine, reference compound]"
testtarget = "recombinant PRL-1 (Homo sapiens, UniProt Q93096)"
quantitativereadout = 4.21

